// data source = the supplement of paper PMC10307832

system: NCI-H1993; assay: relative viability (nuclei count vs DMSO), 5 days (fraction); higher = more cells survive; conditions: first compound 1 µM
Under this convention, YES denotes relative viability strictly below 0.7 and NO denotes relative viability at or above 0.7.

compound	class label
CCN(CC)CCCCNc1ncc2cc(-c3cc(OC)cc(OC)c3)c(NC(=O)NC(C)(C)C)nc2n1 + CC(C)C[C@H](NC(=O)[C@H](Cc1ccccc1)NC(=O)c1cnccn1)B(O)O [Bortezomib] (partner 0.002 µM)	NO
O=c1cc(N2CCOCC2)oc2c(-c3cccc4c3sc3ccccc34)cccc12 + Cc1nc(NC(=O)N2CCC[C@H]2C(N)=O)sc1-c1ccnc(C(C)(C)C(F)(F)F)c1 [Alpelisib] (partner 2 µM)	NO
O=c1cc(N2CCOCC2)oc2c(-c3cccc4c3sc3ccccc34)cccc12 + CC(=O)c1c(C)c2cnc(Nc3ccc(N4CCNCC4)cn3)nc2n(C2CCCC2)c1=O [Palbociclib] (partner 0.5 µM)	YES
CCN(CC)CCCCNc1ncc2cc(-c3cc(OC)cc(OC)c3)c(NC(=O)NC(C)(C)C)nc2n1 + N=C(N)NC(=N)NCCc1ccccc1 [Phenformin] (partner 250 µM)	YES
CCN(CC)CCCCNc1ncc2cc(-c3cc(OC)cc(OC)c3)c(NC(=O)NC(C)(C)C)nc2n1 + COc1cccc2cc(-c3nc([C@H]4CC[C@H](C(=O)O)CC4)n4ncnc(N)c34)[nH]c12 [OSI-027] (partner 0.5 µM)	YES
CCN(CC)CCCCNc1ncc2cc(-c3cc(OC)cc(OC)c3)c(NC(=O)NC(C)(C)C)nc2n1 + Cc1cc(Nc2cc(N3CCN(C)CC3)nc(Sc3ccc(NC(=O)C4CC4)cc3)n2)n[nH]1 [Tozasertib] (partner 0.1 µM)	YES
O=c1cc(N2CCOCC2)oc2c(-c3cccc4c3sc3ccccc34)cccc12 + COc1cc2c(Oc3ccc(NC(=O)C4(C(=O)Nc5ccc(F)cc5)CC4)cc3F)ccnc2cc1OCCCN1CCOCC1 [Foretinib] (partner 0.25 µM)	NO
CCN(CC)CCCCNc1ncc2cc(-c3cc(OC)cc(OC)c3)c(NC(=O)NC(C)(C)C)nc2n1 + CC1(C)CCC(c2ccc(Cl)cc2)=C(CN2CCN(c3ccc(C(=O)NS(=O)(=O)c4ccc(N[C@H](CCN5CCOCC5)CSc5ccccc5)c(S(=O)(=O)C(F)(F)F)c4)cc3)CC2)C1 [Navitoclax] (partner 0.5 µM)	NO
CCN(CC)CCCCNc1ncc2cc(-c3cc(OC)cc(OC)c3)c(NC(=O)NC(C)(C)C)nc2n1 + Cc1nc(NC(=O)N2CCC[C@H]2C(N)=O)sc1-c1ccnc(C(C)(C)C(F)(F)F)c1 [Alpelisib] (partner 2 µM)	YES
O=c1cc(N2CCOCC2)oc2c(-c3cccc4c3sc3ccccc34)cccc12 + Nc1ncn([C@H]2C[C@H](O)[C@@H](CO)O2)c(=O)n1 [Decitabine] (partner 2 µM)	YES
O=c1cc(N2CCOCC2)oc2c(-c3cccc4c3sc3ccccc34)cccc12 + CC1(C)CCC(c2ccc(Cl)cc2)=C(CN2CCN(c3ccc(C(=O)NS(=O)(=O)c4ccc(N[C@H](CCN5CCOCC5)CSc5ccccc5)c(S(=O)(=O)C(F)(F)F)c4)cc3)CC2)C1 [Navitoclax] (partner 0.5 µM)	NO
